molecular target: SREBP-2 (Homo sapiens (Human)); test: In vitro assay SREBP-2: PathHunter U2OS SREBP-2 Nuclear Translocation Cell Line, U18666A-stimulated; format: cell-based; conditions: PathHunter U2OS SREBP-2 nuclear translocation cells, U18666A 10 μM, overnight (16 hours)
parameter.measured: IC50

Take a look at these entries with their results.
{"compound": "CON(C(=O)CC[C@@H](C)[C@H]1CC[C@H]2[C@@H]3CC=C4C[C@@H](O)CC[C@]4(C)[C@H]3CC[C@]12C)[C@@H](C)CO", "measured.value": "250 to 1000 nM"}
{"compound": "C[C@H](CCC(=O)N1CCC(CO)CC1)[C@H]1CC[C@H]2[C@@H]3CC=C4C[C@@H](O)CC[C@]4(C)[C@H]3CC[C@]12C", "measured.value": "< 250 nM"}
{"compound": "C[C@H](CCC(=O)N1CCC(N(C)S(C)(=O)=O)CC1)[C@H]1CC[C@H]2[C@@H]3CC=C4C[C@@H](O)CC[C@]4(C)[C@H]3CC[C@]12C [Example 289]", "measured.value": "250 to 1000 nM"}
{"compound": "C[C@H](CCC(=O)N1CC[C@H](Oc2ccncc2)[C@@H](C)C1)[C@H]1CC[C@H]2[C@@H]3CC=C4C[C@@H](O)CC[C@]4(C)[C@H]3CC[C@]12C", "measured.value": "< 250 nM"}

// query IC50 value for entry `C[C@H](CCC(=O)N1CCC(O)(C2CCC2)CC1)[C@H]1CC[C@H]2[C@@H]3CC=C4C[C@@H](O)CC[C@]4(C)[C@H]3CC[C@]12C`
< 250 nM

----------
target: LXRβ (Homo sapiens (Human), UniProt P55055); test: In vitro assay LXRβ: PathHunter NHR CHO cells, LXRβ / Steroid Receptor Co-activator Peptide enzyme fragment complementation; type: cell-based; conditions: PathHunter NHR CHO cells, full-length human LXRβ and SRCP, chemiluminescent signal; read-out: LXRβ PPI
Sequence (P55055 whole entry, the tested form may be a part): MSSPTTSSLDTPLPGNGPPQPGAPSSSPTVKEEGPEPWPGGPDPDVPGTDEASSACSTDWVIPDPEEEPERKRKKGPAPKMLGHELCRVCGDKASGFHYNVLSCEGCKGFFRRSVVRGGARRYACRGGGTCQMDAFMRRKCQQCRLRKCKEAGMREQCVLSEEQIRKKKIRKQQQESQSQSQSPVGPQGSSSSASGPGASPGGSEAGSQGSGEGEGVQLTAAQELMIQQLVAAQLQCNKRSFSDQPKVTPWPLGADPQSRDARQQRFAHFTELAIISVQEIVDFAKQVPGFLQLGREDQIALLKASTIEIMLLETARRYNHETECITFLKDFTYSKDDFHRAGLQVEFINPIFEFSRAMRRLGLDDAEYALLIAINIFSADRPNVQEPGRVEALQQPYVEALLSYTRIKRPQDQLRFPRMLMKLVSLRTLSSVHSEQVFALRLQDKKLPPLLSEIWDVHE
Can you tell me EC50 for the items I'm about to list?

Worked cases, EC50 given:
{"smiles.entry": "C[C@H](COc1ccccn1)[C@H]1CC[C@H]2[C@@H]3CC=C4C[C@@H](O)CC[C@]4(C)[C@H]3CC[C@]12C", "parameter.measured": "EC50", "measured.value": "> 10 µM"}
{"smiles.entry": "C[C@H](CCc1ncco1)[C@H]1CC[C@H]2[C@@H]3CC=C4C[C@@H](O)CC[C@]4(C)[C@H]3CC[C@]12C", "parameter.measured": "EC50", "measured.value": "1 to 10 µM"}
{"smiles.entry": "C[C@H](CCC(=O)N(C)C)[C@H]1CC[C@H]2[C@@H]3CC=C4C[C@@H](O)CC[C@]4(C)[C@H]3[C@@H](O)C[C@]12C", "parameter.measured": "EC50", "measured.value": "0.25 to 1 µM"}
{"smiles.entry": "C[C@H](CCC(=O)N1CCN(C(=O)c2cnn(C)c2)[C@@H](C)C1)[C@H]1CC[C@H]2[C@@H]3CC=C4C[C@@H](O)CC[C@]4(C)[C@H]3CC[C@]12C", "parameter.measured": "EC50", "measured.value": "> 10 µM"}

List reported EC50 for each of these compounds:
1. COc1ncccc1N1CCN(C(=O)CC[C@@H](C)[C@H]2CC[C@H]3[C@@H]4CC=C5C[C@@H](O)CC[C@]5(C)[C@H]4CC[C@]23C)CC1
2. C[C@H](CCC(=O)N1CCC(C(C)(C)O)CC1)[C@H]1CC[C@H]2[C@@H]3CC=C4C[C@@H](O)CC[C@]4(C)[C@H]3CC[C@]12C

["> 10 µM", "> 10 µM"]

# batch size: 3; output EC50 per entry
1. C[C@H](CCC(=O)N1CC(C)(CO)C1)[C@H]1CC[C@H]2[C@@H]3CC=C4C[C@@H](O)CC[C@]4(C)[C@H]3CC[C@]12C
2. COC(=O)N1CCN(C(=O)CCC[C@H]2CC[C@H]3[C@@H]4CC=C5C[C@@H](O)CC[C@]5(C)[C@H]4CC[C@]23C)CC1
3. C[C@H](CCC(=O)N1C[C@@H]2C[C@]2(c2ccccc2)C1)[C@H]1CC[C@H]2[C@@H]3CC=C4C[C@@H](O)CC[C@]4(C)[C@H]3CC[C@]12C

1: > 10 µM; 2: > 10 µM; 3: 1 to 10 µM
